Experiment notes: Pharmacokinetic profile in beagles, single oral dose
Assay type: in vivo, beagle dogs
Measurement context: male, dog, plasma; beagle, oral single dose 0.3 mg/kg, mean n=3
Reported property: Tmax (h)
Reply with just the number (in h).

**Q:** Fill blank: measured Tmax of the compound [2H]C([2H])([2H])NCc1cc(-c2ccccc2F)n(S(=O)(=O)c2ccc(F)cc2)c1 [Example 7] is ____.
**A:** 1

----------
Experiment notes: Oral bioavailability in beagle dogs
Assay type: in vivo
Measurement context: dog, plasma, po, 2 mg/kg, oral 2 mg/kg (1 mg/ml), read-out: BA (bioavailability)
Reported property: bioavailability

**Q:** Value lookup for bioavailability; key = [2H]C([2H])([2H])NCc1cc(-c2ccccc2F)n(S(=O)(=O)c2ccc(F)cc2)c1
**A:** ≥ 100%

----------
Experiment notes: Pharmacokinetic profile in beagles, single oral dose
Assay type: in vivo, beagle dogs
Measurement context: male, dog, plasma; beagle, oral single dose 0.1 mg/kg, mean n=3
Reported property: Tmax (min)
Kindly provide the numeric value in min only, without the unit symbol.

**Q:** Recorded Tmax of [2H]C([2H])([2H])NCc1cc(-c2ccccc2F)n(S(=O)(=O)c2ccc(F)cc2)c1 , please.
**A:** 50

----------
Reported concentration at 5 h values follow for various molecules
Experiment notes: Pharmacokinetics in rats according to deuterium substitution
Format: in vivo
Measurement context: Sprague-Dawley, rat, plasma; male rats, oral 10 mg/kg, 5 hr after administration; read-out: Blood concentration
Field format: number, assumed ng/mL, no unit text.

{"Molecule": "[2H]C([2H])([2H])NCc1cn(S(=O)(=O)c2cccnc2)c(-c2ccc(F)cc2F)c1OC", "Scale unit": "ng/mL", "concentration at 5 h": 22.6}

Okay, now this molecule:
**Q:** Fill in the blank: the reported concentration at 5 h of CNCc1cn(S(=O)(=O)c2cccnc2)c(-c2ccc(F)cc2F)c1OC [Comparative Example 2, reference compound] is ____.
**A:** 12.8

----------
Experiment notes: Oral bioavailability in beagle dogs
Type: in vivo
Measurement context: dog, plasma, intravenous 0.2 mg/kg, mean n=3
Reported property: AUC(0-t) (ng·h/mL)
Give the value, in units of ng·h/mL, as a plain number.

**Q:** Recorded AUC(0-t) of [2H]C([2H])([2H])NCc1cc(-c2ccccc2F)n(S(=O)(=O)c2ccc(F)cc2)c1 [Example 7] , please.
**A:** 423

----------
Experiment notes: Pharmacokinetic profile in beagles, single oral dose
Assay type: in vivo, beagle dogs
Measurement context: male, dog, plasma; beagle, oral single dose 1 mg/kg, mean n=3
Reported property: Tmax (h)
Respond with the bare value in h.

**Q:** GET /values?readout=Tmax&item= [2H]C([2H])([2H])NCc1cc(-c2ccccc2F)n(S(=O)(=O)c2ccc(F)cc2)c1 [Example 7]
**A:** 1

----------
Experiment notes: Oral bioavailability in beagle dogs
Format: in vivo
Measurement context: dog, plasma, oral 2 mg/kg (1 mg/ml), mean n=3
Reported property: half-life
The number alone won't do; follow it with the unit.

**Q:** If you can, please state the reported half-life value of [2H]C([2H])([2H])NCc1cc(-c2ccccc2F)n(S(=O)(=O)c2ccc(F)cc2)c1 .
**A:** 5.55 h

----------
Experiment notes: Pharmacokinetic profile in beagles, single oral dose
Assay type: in vivo, beagle dogs
Measurement context: male, dog, plasma; beagle, oral single dose 1 mg/kg, mean n=3
Reported property: half-life (h)
Answer with a number only, understood to be in h.

**Q:** Suppose we examine the compound [2H]C([2H])([2H])NCc1cc(-c2ccccc2F)n(S(=O)(=O)c2ccc(F)cc2)c1 ; what half-life value has been reported?
**A:** 3.03

// provenance: patent US20250051275A1
